- Measurement Protocol: chemical genetic growth profiling, strain panel (AID 1159580);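 further: tested at 20 µM; growth read once vehicle control cultures reached saturation at 30 °C; 1 = growth at the plate median or of vehicle wells; lower values mean less growth of the strain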
- Test Context: S. cerevisiae deletion strains, growth OD, locus YDR162C, strain NBP2, hits give low values
The whole screen tested about 5,500 compounds, of which about 2,000 (36%) were called active. Roughly 18% stayed inconclusive and do not appear here. Some of the results follow.
Measure Name: normalized growth

Entry "O=C(O)CN(CC(=O)O)Cc1cc2c(-c3ccccc3C(=O)O)c3cc(CN(CC(=O)O)CC(=O)O)c(=O)cc-3oc2cc1O" : reported normalized growth = ?
0.984 (inactive)

New cases:
Query: normalized growth; subject: "CCCCN(CCCC)CCCOC(=O)c1ccc(N)cc1"
0.984 (inactive)

What about this compound? "CO/N=C(\C(=O)N[C@@H]1C(=O)N2C(C(=O)O)=C(COC(C)=O)CS[C@H]12)c1csc(N)n1"
0.954 (inactive)

Repeat with "CO/N=C(\C(=O)N[C@@H]1C(=O)N2C(C(=O)O)=C(CSc3nc(=O)c(O)nn3C)CS[C@H]12)c1csc(N)n1"
0.97 (inactive)

====

- Measurement Protocol: chemical genetic growth profiling, strain panel (AID 1159580)
- Test Context: S. cerevisiae deletion strains, growth OD, locus YLR268W, strain sec22
The whole screen tested about 5,500 compounds, of which about 2,000 (36%) were called active. Another 18% or so got no clear call; they are omitted. Rule as the data show it: active = normalized growth mostly below about 0.91 (no sharp cut-off); inconclusive = no clear call, values can overlap the other calls; inactive = mostly above about 0.92. Some of the results follow.
Your answer must be one of the following: active, inactive

For CC1C[C@H]2CC(=O)[C@H]3CCCN4CCC[C@H]2[C@]34C1 (stereo partly drawn) , what call appears in the results of this test?
inactive

Subsequent entry: "Nc1ccc(N=Nc2ccccc2)c(N)n1"
inactive

Please answer likewise for C#CCCCCCCCCCCCC(O)CC(O)COC(C)=O (stereo not drawn)
inactive

Follow-up entry: C=C1CCC(OC(C)=O)/C(C)=C/C[C@@H]2[C@@H]1CC2(C)C (stereo partly drawn)
inactive

Can you handle "CC(C)(C)CC(C)(C)c1ccc(O)c(Cc2ccc(Cl)cc2Cl)c1" next?
inactive

Repeat with O=C1CC2OCC=C3CN4CC[C@]56c7ccccc7N1C5[C@H]2[C@H]3CC46 (stereo partly drawn)
inactive

More entries:
Please share the test call associated with CC(=O)OCC(OC(C)=O)C(OC(C)=O)C(OC(C)=O)C(OC(C)=O)C(COC(C)=O)OC(C)=O (stereo not drawn) .
inactive

Next: C=CCCCCCCCCCCCC(O)CC(O)COC(C)=O (stereo not drawn) (tested in a mixture with another compound)
inactive

Moving on to CC(C)NCC(O)c1cc(O)cc(O)c1 (stereo not drawn)
inactive

Note, next up: C#CCCCCCCCCCCCC(O)CC(O)CO (stereo not drawn)
inactive

Entry to check: C=C1CCC(C2CC(=O)OC2=O)C(=O)CCC2C1CC2(C)C (stereo not drawn)
inactive

Check C=CCSCC1Nc2cc(Cl)c(S(N)(=O)=O)cc2S(=O)(=O)N1 (stereo not drawn) too.
inactive

// query: "O=c1cc[nH]c(=S)[nH]1"
inactive

Here is the next compound: C[C@@H]1C(=O)OC2[C@H](O)C34[C@@H]5OC(=O)[C@@]3(O[C@@H]3OC(=O)[C@H](O)[C@@]34[C@H](C(C)(C)C)[C@H]5O)[C@]21O (stereo partly drawn)
inactive

Another compound to look at: COC(=O)C(O)c1ccccc1 (stereo not drawn)
inactive

What about "O=C1NC(=O)C(=O)C(=O)N1" ?
inactive

====

- Measurement Protocol: chemical genetic growth profiling, strain panel (AID 1159580)
- Test Context: S. cerevisiae deletion strains, growth OD, locus YPR167C, strain met16
Screen size: about 5,500 compounds; about 2,000 (36%) were called active. Roughly 18% stayed inconclusive and do not appear here. Cut-off read from the data, not from the text of the source: active = normalized growth mostly below about 0.91 (no sharp cut-off); inconclusive = no clear call, values can overlap the other calls; inactive = mostly above about 0.92. This is one part of the list.
// one of T for active, F for inactive, no free text

Some solved entries appear below for comparison.
Check the results log: what was the call for C=C1CCC2C(CC2(C)C)C(=C)CC/C1=N\O (stereo unspecified) ?
F

Quick one: C=C1C(=O)OC2CC1C(OC(C)=O)C/C(C)=C/CC/C(C)=C/CC[C@]2(C)O (stereo partly specified)
F

Again, but for C=C1CCC(OC(C)=O)/C(C)=C/C[C@@H]2[C@@H]1CC2(C)C (stereo partly specified)
F

New cases:
Dear colleague, could you share the recorded outcome for "COc1cc2occ(-c3ccccc3)c(=O)c2c(OC)c1C" when you have a moment?
F

What about C=C1CCC(=O)C(C)CCC2C1CC2(C)C (stereo unspecified) ?
F

Then this compound: "COc1cc(-c2coc3cc(OC)c(OC)c(OC)c3c2=O)cc(OC)c1OC"
F

Another compound to check: C/C1=C\CCC(=O)C2CC(C)(C)C2CC1 (stereo unspecified)
F

Note, next up: "COc1ccc2c(c1)CCC(c1ccccc1)=C2c1ccc(OCCN2CCCC2)cc1"
T

Quick one: "COc1cc(-c2coc3cc(OCc4ccccc4)c(OC)c(O)c3c2=O)cc(OCc2ccccc2)c1OC"
F

Now this one: C=C1C(=O)O[C@@H]2C3O[C@]3(C)CC/C=C(\C)CC[C@@H]12 (stereo partly specified)
F

What would you report for "CCNC(=O)CC[C@H](N)C(=O)O" ?
F

====

- Measurement Protocol: chemical genetic growth profiling, strain panel (AID 1159580);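 further: tested at 20 µM; growth read once vehicle control cultures reached saturation at 30 °C; 1 = growth at the plate median or of vehicle wells; lower values mean less growth of the strain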
- Test Context: S. cerevisiae deletion strains, growth OD, locus YAL013W, strain DEP1, hits give low values
About 2,000 (36%) of roughly 5,500 compounds were called active. Roughly 18% stayed inconclusive and do not appear here. The list shows a part of the results.
Measure Name: normalized growth
I only need the number, thanks.

Known results for compounds:
Data request, read-out normalized growth, for "COc1cc2occ(-c3ccccc3)c(=O)c2c(OC)c1C"
0.947

Also check "CC(=O)OCC(COC(C)=O)OC(C)=O"
1.01

Try this compound next: "Cc1onc(-c2c(Cl)cccc2Cl)c1C(=O)Oc1ccc(Cl)c(Cl)c1"
1.01

Follow-up entry: "Cc1cccc(C)c1NC1=NCCCS1"
0.999

Also check C=CCCCCCCCCCCCC(O)CC(O)COC(C)=O (centres undefined) (tested in a mixture with another compound)
0.943

***
Need normalized growth of NC(CO)C(=O)NNCc1ccc(O)c(O)c1O (centres undefined) , thanks.
0.941

====

Consider the following compounds and their measured normalized growth readings.
- Measurement Protocol: chemical genetic growth profiling, strain panel (AID 1159580);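 further: tested at 20 µM; growth read once vehicle control cultures reached saturation at 30 °C; 1 = growth at the plate median or of vehicle wells; lower values mean less growth of the strain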
- Test Context: S. cerevisiae deletion strains, growth OD, locus YKL068W, hits give low values
Out of some 5,500 compounds screened, about 2,000 (36%) were called active. Another 18% or so got no clear call; they are omitted. This is one part of the list.
Number only, please.

Can you share its normalized growth? I mean this compound: CC(C)NCC(O)c1cc(O)cc(O)c1 (centres undefined)
0.989

Also check CO/N=C(\C(=O)NC1C(=O)N2C(C(=O)O)=C(COC(N)=O)CSC12)c1ccco1 (centres undefined)
0.575

Now consider "COc1cc([C@@H]2c3cc4c(c(O)c3C[C@H]3COC(=O)[C@@H]32)OCO4)cc(OC)c1OC" .
0.979

Now the compound COC(=O)C(C)c1ccc(C(=O)c2cccs2)cc1 (centres undefined)
0.967

Then this compound: "O=C(O)CN(CC(=O)O)Cc1cc2c(-c3ccccc3C(=O)O)c3cc(CN(CC(=O)O)CC(=O)O)c(=O)cc-3oc2cc1O"
1.01

Proceed to Nc1ccn(C2O[C@H](CO)[C@@H](O)[C@@H]2O)c(=O)n1 (some centres undefined)
0.994

Same lookup for CCCCN1CCCCC1C(=O)Nc1c(C)cccc1C (centres undefined) , please.
0.991

Next entry: "COc1ccc2c(c1)O[C@H]1c3ccc(OC)cc3OC[C@@H]21"
0.99

What do you have for "Cc1cccc(C)c1NC1=NCCCS1" ?
0.977

Now give it for "NC(N)=NS(=O)(=O)c1ccc(N)cc1" too.
1

Further cases:
State the recorded normalized growth for this entry: COC(=O)C(O)c1ccccc1 (centres undefined)
0.982

And then CC(C(=O)O)c1ccc(C(=O)c2cccs2)cc1 (centres undefined) , what is it?
1.01

Next entry: "O=C1NC(=O)C(=O)C(=O)N1"
0.997

====

- Measurement Protocol: chemical genetic growth profiling, strain panel (AID 1159580);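 further: tested at 20 µM; growth read once vehicle control cultures reached saturation at 30 °C; 1 = growth at the plate median or of vehicle wells; lower values mean less growth of the strain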
- Test Context: S. cerevisiae deletion strains, growth OD, locus YLR027C, strain aat2
Screen size: about 5,500 compounds; about 2,000 (36%) were called active. About 18% were inconclusive and are not listed. Cut-off read from the data, not from the text of the source: active = normalized growth mostly below about 0.91 (no sharp cut-off); inconclusive = no clear call, values can overlap the other calls; inactive = mostly above about 0.92. Some of the results follow.
Pick one: active, inactive

Please let me know the test result on file for "O=C(O)c1ccccc1-c1c2cc(Br)c(=O)cc-2oc2[c]([Hg])c(O)c(Br)cc12" .
inactive

***
Test call, this compound: "CN1C(C(=O)Nc2ccccn2)=C(O)c2ccccc2S1(=O)=O"
inactive

Record: "Cc1cccc(Nc2ccccc2C(=O)O)c1C"
inactive

Now the compound C#CCCCCCCCCCCCC(O)CC(O)CO (stereo unspecified)
inactive
